biological target: human GLP-1 receptor (human, UniProt P43220 24-463); test: cell-based or functional assay
Sequence (P43220 24-463): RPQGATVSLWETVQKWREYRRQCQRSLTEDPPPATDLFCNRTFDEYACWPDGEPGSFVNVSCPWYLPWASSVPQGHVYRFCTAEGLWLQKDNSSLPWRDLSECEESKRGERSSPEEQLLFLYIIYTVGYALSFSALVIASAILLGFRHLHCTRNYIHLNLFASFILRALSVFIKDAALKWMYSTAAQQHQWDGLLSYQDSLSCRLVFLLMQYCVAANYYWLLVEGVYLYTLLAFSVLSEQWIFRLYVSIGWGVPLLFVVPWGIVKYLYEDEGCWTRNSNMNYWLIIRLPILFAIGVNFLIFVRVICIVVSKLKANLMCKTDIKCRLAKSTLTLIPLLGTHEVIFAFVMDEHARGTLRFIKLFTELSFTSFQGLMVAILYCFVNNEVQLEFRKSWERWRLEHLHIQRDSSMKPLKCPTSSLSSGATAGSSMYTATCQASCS
Starred links: 1 amine or outer side, 2 acyl side, 3 side chain; linkers in the order of their positions; H or OH if unused. Non-standard residues stand in square brackets, D forms with d. No end group written: not given here. AMCB = 2-amino-5-(4-chloro-2-methylphenyl)pentanoic acid, Cc1cc(Cl)ccc1CCC[C@H](N[*:1])C(=O)[*:2]; Bip(2'-Et-4'-OMe) = CCc1cc(OC)ccc1-c1ccc(C[C@H](N)C(=O)O)cc1; 2F‑APPA = 2-amino-5-(2-fluorophenyl)pentanoic acid; αMePhe(2-F) = C[C@](N)(Cc1ccccc1F)C(=O)O; aThr = C[C@H](O)[C@H](N)C(=O)O; NMeAPPA = not defined here; CNB = not defined here; Aib = CC(C)(N)C(=O)O
ASSAY READOUT: cAMP release, % activity, 1 nM (%)

H[Aib][CNB]G[aThr][αMePhe(2-F)][aThr]SD[Bip(2'-Et-4'-OMe)][NMeAPPA] (reading uncertain) [Seq. ID. No. 130: H-Aib-(CNB)-G-T(allo)-(α-Me-2F-Phe)-T(allo)-SD-Bip(OMe)-((NMe)(APPA))] = 39
H[Aib][CNB]G[aThr][αMePhe(2-F)][aThr]SD[Bip(2'-Et-4'-OMe)][2F‑APPA] (reading uncertain; also: reduced (CH2) bonds Z9-Z10 and Z10-Z11) [Seq. ID. No. 204: H-Aib-(CNB)-G-T(allo)-(α-Me-2F-Phe)-T(allo)-SD-(CH2)-Bip(OMe)-(CH2)-(2F-APPA)] = 96
H[Aib]QGT[αMePhe(2-F)]TSD[Bip(2'-Et-4'-OMe)][AMCB] [Seq. ID. No. 40: H-Aib-QGT-(α-Me-2F-Phe)-TSD-Bip(OMe)-(AMCB)] = 38
